Molecular target: T1, murine IL-11 (mouse, UniProt P47873 22-199)
T1 sequence: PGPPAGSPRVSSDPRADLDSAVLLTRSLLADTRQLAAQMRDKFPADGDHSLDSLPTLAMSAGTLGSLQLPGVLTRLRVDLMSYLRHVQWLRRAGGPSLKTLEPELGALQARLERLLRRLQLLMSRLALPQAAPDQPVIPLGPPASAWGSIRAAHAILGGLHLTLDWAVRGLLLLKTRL
Assay: cell-based or functional assay
# RGA Efficacy (%) per entry
Reply with just the number (in %).

Before answering, review these 2 worked examples.
Task: # return recorded RGA Efficacy (%) for input TPP-29402 (antibody, human IgG1, V domains shown) VH: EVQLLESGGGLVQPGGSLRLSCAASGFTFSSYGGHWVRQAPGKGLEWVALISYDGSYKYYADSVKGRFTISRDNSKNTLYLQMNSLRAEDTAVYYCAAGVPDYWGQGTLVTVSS VL: QSVLTQPPSASGTPGQRVTISCSGSSSNIGSGLDVHWYQQLPGTAPKLLIYSNEERPSGVPDRFSGSKSGTSASLAISGLRSEDEADYYCAAWDSSLYGPVFGGGTKLTVL
Output: 95.5

Task: # return recorded RGA Efficacy (%) for input TPP-29401 (antibody, human IgG1, V domains shown) VH: EVQLLESGGGLVQPGGSLRLSCAASGFTFSSYGGHWVRQAPGKGLEWVAVISYDGSYKYYADSVKGRFTISRDNSKNTLYLQMNSLRAEDTAVYYCAAGVPDYWGQGTLVTVSS VL: QSVLTQPPSASGTPGQRVTISCSGSSSNIGSYYDVHWYQQLPGTAPKLLIYSNEERPSGVPDRFSGSKSGTSASLAISGLRSEDEADYYCAAWDDSLSGPVFGGGTKLTVL
Output: 96.9

Alright, here's another binder for you.
Task: # return recorded RGA Efficacy (%) for input TPP-29396 (antibody, human IgG1, V domains shown) VH: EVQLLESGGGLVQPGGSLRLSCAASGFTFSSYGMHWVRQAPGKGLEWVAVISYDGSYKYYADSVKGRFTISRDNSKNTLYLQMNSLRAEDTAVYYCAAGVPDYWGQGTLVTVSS VL: QSVLTQPPSASGTPGQRVTISCSGSSSNIWSDYDVHWYQQLPGTAPKLLIYSNEERPSGVPDRFSGSKSGTSASLAISGLRSEDEADYYCAAWDFSLYGPVFGGGTKLTVL
Output: 96.1

Entry source: patent US20240317847A1
